Hey, just so you know, these numbers are from ChEMBL document CHEMBL1145361.

# Assay System: C-C chemokine receptor type 2 (Homo sapiens, UniProt P41597)
# Sequence (P41597 whole entry): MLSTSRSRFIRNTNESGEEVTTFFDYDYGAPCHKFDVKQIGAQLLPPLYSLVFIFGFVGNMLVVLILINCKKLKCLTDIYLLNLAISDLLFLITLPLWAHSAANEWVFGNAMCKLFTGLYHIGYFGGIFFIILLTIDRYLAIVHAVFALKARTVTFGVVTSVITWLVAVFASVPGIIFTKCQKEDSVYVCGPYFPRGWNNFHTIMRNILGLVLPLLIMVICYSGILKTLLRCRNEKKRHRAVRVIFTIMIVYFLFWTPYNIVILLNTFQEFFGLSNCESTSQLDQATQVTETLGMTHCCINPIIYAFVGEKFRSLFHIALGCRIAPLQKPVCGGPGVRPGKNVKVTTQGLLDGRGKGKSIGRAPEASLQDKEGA
# Assay Text: Inhibition of Ca2+ flux in human monocytes
pIC50: −log10 of the molar value.
Readout Type: pIC50

Input line: Identify pIC50 associated with the molecule `CC(C)[C@]1(C(=O)NCc2cc(F)cc(C(F)(F)F)c2)CC[C@@H](N2CC[C@]3(C=Cc4ccccc43)[C@@H](C)C2)C1`
Output line: 9.15

[A] C[C@H]1CN([C@@H]2CC[C@@](C(=O)NCc3cc(F)cc(C(F)(F)F)c3)(C3CC3)C2)CC[C@]12C=Cc1ccccc12
[B] CC(C)C[C@]1(C(=O)NCc2cc(F)cc(C(F)(F)F)c2)CC[C@@H](N2CC[C@]3(C=Cc4ccccc43)[C@@H](C)C2)C1
Input line: // max by pIC50 over [ A , B ] Answer by stating the label of the chosen item.
Output line: A
(A: 9.20, B: 8.69)

* * *

# Assay System: C-C chemokine receptor type 2 (Mus musculus)
# Assay Text: Displacement of [125I]MCP1 from mouse CCR2 receptor expressed in CHO cells
pIC50: −log10 of the molar value.
Readout Type: pIC50

Worked cases, answers included:
Input line: Identify pIC50 associated with the compound C[C@H]1CN(C2CCC(CC3CCC3)(C(=O)NCc3cc(F)cc(C(F)(F)F)c3)C2)CC[C@]12C=Cc1ccccc12 (single isomer, unassigned; diastereomer 3)
Output line: 6.25

Input line: Identify pIC50 associated with the compound `CSC[C@]1(C(=O)NCc2cc(F)cc(C(F)(F)F)c2)CC[C@@H](N2CC[C@]3(C=Cc4ccccc43)[C@@H](C)C2)C1`
Output line: 7.77

Input line: Identify pIC50 associated with the compound `C[C@H]1CN([C@@H]2CC[C@](C)(C(=O)NCc3cc(F)cc(C(F)(F)F)c3)C2)CC[C@]12C=Cc1ccccc12`
Output line: 7.24

Input line: Identify pIC50 associated with the compound CCCCCCC1(C(=O)NCc2cc(F)cc(C(F)(F)F)c2)CCC(N2CC[C@]3(C=Cc4ccccc43)[C@@H](C)C2)C1 (some centres undefined)
Output line: 6.89

Input line: Identify pIC50 associated with the compound `CC(C)[C@]1(C(=O)NCc2cc(F)cc(C(F)(F)F)c2)CC[C@@H](N2CC[C@]3(C=Cc4ccccc43)[C@@H](C)C2)C1`
Output line: 8.30

Input line: Identify pIC50 associated with the compound COCC1(C(=O)NCc2cc(C(F)(F)F)cc(C(F)(F)F)c2)CCC(N2CC[C@]3(C=Cc4ccccc43)[C@@H](C)C2)C1 (some centres undefined)
Output line: 7.03

[P] C[C@H]1CN([C@@H]2CC[C@](CC3CCC3)(C(=O)NCc3cc(C(F)(F)F)cc(C(F)(F)F)c3)C2)CC[C@]12C=Cc1ccccc12
[Q] CCC1(C(=O)NCc2cc(F)cc(C(F)(F)F)c2)CCC(N2CC[C@]3(C=Cc4ccccc43)[C@@H](C)C2)C1 (some centres undefined)
[R] C[C@H]1CN(C2CCC(CC3CCC3)(C(=O)NCc3cc(F)cc(C(F)(F)F)c3)C2)CC[C@]12C=Cc1ccccc12 (some centres undefined)
Input line: Please order the records by their reported pIC50, lowest number first. Reply with the labels, ordered as the question asks.
Output line: P, R, Q
(P: 7.19, R: 7.55, Q: 8.46)

* * *

# Assay System: C-C chemokine receptor type 2 (Homo sapiens, UniProt P41597, I40L)
# Sequence (P41597 whole entry I40L): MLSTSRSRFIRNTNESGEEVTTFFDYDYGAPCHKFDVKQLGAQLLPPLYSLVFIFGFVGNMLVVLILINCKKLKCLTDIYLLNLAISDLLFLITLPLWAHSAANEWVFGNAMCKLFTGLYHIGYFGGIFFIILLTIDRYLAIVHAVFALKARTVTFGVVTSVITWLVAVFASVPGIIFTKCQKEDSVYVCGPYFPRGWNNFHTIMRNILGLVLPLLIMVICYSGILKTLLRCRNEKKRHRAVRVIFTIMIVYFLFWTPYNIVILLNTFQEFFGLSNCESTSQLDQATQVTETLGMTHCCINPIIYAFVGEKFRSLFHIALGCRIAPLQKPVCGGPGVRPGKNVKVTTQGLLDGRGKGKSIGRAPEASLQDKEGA
# Assay Text: Displacement of [125I]MCP1 from human CCR2 I40L mutant expressed in CHO cells
pIC50: −log10 of the molar value.
Readout Type: pIC50

[P] CCC[C@]1(C(=O)NCc2cc(C(F)(F)F)cc(C(F)(F)F)c2)CC[C@@H](N2CC[C@]3(C=Cc4ccccc43)[C@@H](C)C2)C1
[Q] C[C@H]1CN(C2CCC(C(=O)NCc3cc(C(F)(F)F)cc(C(F)(F)F)c3)(C3CC3)C2)CC[C@]12C=Cc1ccccc12 (some centres not stated)
Input line: Select one. Lower pIC50: P or Q Answer by stating the label of the chosen item.
Output line: P
(P: 7.80, Q: 8.19)

[a] CCCCCCC1(C(=O)NCc2cc(F)cc(C(F)(F)F)c2)CCC(N2CC[C@]3(C=Cc4ccccc43)[C@@H](C)C2)C1 (some centres not stated)
[b] C[C@H]1CN([C@@H]2CC[C@@](C(=O)NCc3cc(F)cc(C(F)(F)F)c3)(C3CC3)C2)CC[C@]12C=Cc1ccccc12
Input line: Select one. Lower pIC50: a or b Answer by stating the label of the chosen item.
Output line: a

[A] CCCCCCC1(C(=O)NCc2cc(C(F)(F)F)cc(C(F)(F)F)c2)CCC(N2CC[C@]3(C=Cc4ccccc43)[C@@H](C)C2)C1 (some centres not stated)
[B] C[C@H]1CN(C2CCC(CC3CC3)(C(=O)NCc3cc(F)cc(C(F)(F)F)c3)C2)CC[C@]12C=Cc1ccccc12 (some centres not stated)
Input line: Select one. Lower pIC50: A or B Answer by stating the label of the chosen item.
Output line: A
(A: 6.64, B: 8.26)

* * *

# Assay System: C-C chemokine receptor type 2 (Mus musculus, UniProt P51683)
# Sequence (P51683 whole entry): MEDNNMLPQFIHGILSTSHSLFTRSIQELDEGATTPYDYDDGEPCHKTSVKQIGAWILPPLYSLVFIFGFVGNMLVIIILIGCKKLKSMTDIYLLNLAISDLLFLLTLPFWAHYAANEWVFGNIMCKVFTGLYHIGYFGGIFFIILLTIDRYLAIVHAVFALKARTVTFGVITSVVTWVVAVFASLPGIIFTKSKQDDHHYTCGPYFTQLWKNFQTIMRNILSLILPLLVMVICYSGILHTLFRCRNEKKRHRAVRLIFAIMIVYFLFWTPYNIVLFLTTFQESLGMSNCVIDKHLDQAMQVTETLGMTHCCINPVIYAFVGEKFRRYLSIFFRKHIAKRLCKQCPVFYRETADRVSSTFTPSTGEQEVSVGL
# Assay Text: Displacement of [125I]MCP1 from mouse CCR2 receptor expressed in CHO cells
pIC50: −log10 of the molar value.
Readout Type: pIC50

Input line: State pIC50 (C-C chemokine receptor type 2 (Mus musculus, UniProt P51683)) of `CSC[C@]1(C(=O)NCc2cc(C(F)(F)F)cc(C(F)(F)F)c2)CC[C@@H](N2CC[C@]3(C=Cc4ccccc43)[C@@H](C)C2)C1` .
Output line: 7.18

Input line: State pIC50 (C-C chemokine receptor type 2 (Mus musculus, UniProt P51683)) of `CS[C@]1(C(=O)NCc2cc(C(F)(F)F)cc(C(F)(F)F)c2)CC[C@@H](N2CC[C@]3(C=Cc4ccccc43)[C@@H](C)C2)C1` .
Output line: 6.45

[1] COCC1(C(=O)NCc2cc(F)cc(C(F)(F)F)c2)CCC(N2CC[C@]3(C=Cc4ccccc43)[C@@H](C)C2)C1 (stereo not given in full)
[2] CC(C)C[C@]1(C(=O)NCc2cc(C(F)(F)F)cc(C(F)(F)F)c2)CC[C@@H](N2CC[C@]3(C=Cc4ccccc43)[C@@H](C)C2)C1
[3] CCCCCCC1(C(=O)NCc2cc(C(F)(F)F)cc(C(F)(F)F)c2)CCC(N2CC[C@]3(C=Cc4ccccc43)[C@@H](C)C2)C1 (stereo not given in full)
Input line: Parameters: sort_field (pIC50), sort_dir (desc). Reply with the labels, ordered as the question asks.
Output line: 2, 1, 3
(2: 7.59, 1: 7.13, 3: 6.55)
